# Target: P2Y purinoceptor 6 (Homo sapiens, UniProt Q15077)
# Sequence (Q15077 whole entry): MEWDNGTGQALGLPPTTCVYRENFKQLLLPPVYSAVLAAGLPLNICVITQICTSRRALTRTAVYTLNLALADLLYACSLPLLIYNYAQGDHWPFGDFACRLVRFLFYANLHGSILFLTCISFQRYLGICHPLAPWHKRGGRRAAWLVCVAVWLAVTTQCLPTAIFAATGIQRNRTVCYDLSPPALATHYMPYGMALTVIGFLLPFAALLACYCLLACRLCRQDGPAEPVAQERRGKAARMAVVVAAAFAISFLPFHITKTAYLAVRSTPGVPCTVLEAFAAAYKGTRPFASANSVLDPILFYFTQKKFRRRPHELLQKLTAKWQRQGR
# Method description: Agonist activity at human P2Y6 receptor expressed in human 1321N1 cells assessed as induction of calcium mobilization by FLIPR method
Readout label: EC50 (nM)

I = CCN(CC)CC.CCN(CC)CC.CO/N=c1/ccn([C@@H]2O[C@H](COP(=O)(O)OP(=O)(O)OP(=O)(O)OC[C@H]3O[C@@H](n4ccc(=O)[nH]c4=O)[C@H](O)[C@@H]3O)[C@@H](O)[C@H]2O)c(=O)[nH]1
II = O=c1ccn([C@@H]2O[C@H](COP(=O)(O)OP(=O)(O)O)[C@@H](O)[C@H]2O)c(=O)[nH]1
III = O=c1ccn([C@]23C[C@H]2[C@H](COP(=O)(O)CP(=O)(O)O)[C@@H](O)[C@H]3O)c(=O)[nH]1
IV = CO/N=c1/ccn([C@]23C[C@H]2[C@H](COP(=O)(O)OP(=O)(O)OP(=O)(O)OC[C@@]24C[C@@H]2[C@@H](n2ccc(=O)[nH]c2=O)[C@H](O)[C@@H]4O)[C@@H](O)[C@H]3O)c(=O)[nH]1
Task field, ranking: reported EC50, descending order. Labels, requested order.
III, I, IV, II

---

# Method description: Half life in human 1321N1 cell membranes
# Assay type: ADME, cell-based
Readout label: half-life (min)

A = CO/N=c1/ccn([C@@H]2O[C@H](COP(=O)(O)OP(=O)(O)O)[C@@H](O)[C@H]2O)c(=O)[nH]1
B = CCN(CC)CC.CCN(CC)CC.CO/N=c1/ccn([C@@H]2O[C@H](COP(=O)(O)OP(=O)(O)OP(=O)(O)OC[C@H]3O[C@@H](n4ccc(=O)[nH]c4=O)[C@H](O)[C@@H]3O)[C@@H](O)[C@H]2O)c(=O)[nH]1
Which entry has a larger number for half-life, A or B ? Which one? Tell me its label.
A
(A: 55 min, B: 23 min)

---

# Target: P2Y purinoceptor 6 (Homo sapiens)
# Method description: Agonist activity at human P2Y6 receptor expressed in human 1321N1 cells assessed as induction of calcium mobilization by FLIPR method
pEC50: −log10 of the molar value.
Readout label: pEC50

CO/N=c1/ccn([C@]23C[C@H]2[C@H](COP(=O)(O)CP(=O)(O)O)[C@@H](O)[C@H]3O)c(=O)[nH]1 5.20
CO/N=c1/ccn([C@]23C[C@H]2[C@H](COP(=O)(O)OP(=O)(O)OP(=O)(O)OC[C@H]2O[C@@H](n4ccc(=O)[nH]c4=O)[C@H](O)[C@@H]2O)[C@@H](O)[C@H]3O)c(=O)[nH]1 5.39
CO/N=c1/ccn([C@]23C[C@H]2[C@H](COP(=O)(O)OP(=O)(O)OP(=O)(O)OC[C@@H]2[C@@H](O)[C@@H](O)[C@@]4(n5ccc(=O)[nH]c5=O)C[C@@H]24)[C@@H](O)[C@H]3O)c(=O)[nH]1 5.16

P = O=c1[nH]/c(=N\OCc2ccccc2)ccn1[C@]12C[C@H]1[C@H](COP(=O)(O)CP(=O)(O)O)[C@@H](O)[C@H]2O
Q = O=c1[nH]c(=O)n([C@@H]2O[C@H](COP(=O)(O)OP(=O)(O)O)[C@@H](O)[C@H]2O)cc1I
R = O=c1[nH]/c(=N\OCc2ccccc2)ccn1[C@]12C[C@H]1[C@H](COP(=O)(O)OP(=O)(O)O)[C@@H](O)[C@H]2O
Order the 3 molecules from highest to lowest pEC50. Labels, requested order.
Q, R, P
(Q: 7.31, R: 6.10, P: 5.30)

---

# Target: P2Y purinoceptor 6 (Homo sapiens)
# Method description: Agonist activity at human P2Y6 receptor expressed in human 1321N1 cells assessed as induction of calcium mobilization by FLIPR method
pEC50: −log10 of the molar value.
Readout label: pEC50

I = CO/N=c1/ccn([C@]23C[C@H]2[C@H](COP(=O)(O)OP(=O)(O)O)[C@@H](O)[C@H]3O)c(=O)[nH]1
II = CO/N=c1/ccn([C@]23C[C@H]2[C@H](COP(=O)(O)OP(=O)(O)OP(=O)(O)OC[C@@H]2[C@@H](O)[C@@H](O)[C@@]4(n5cc/c(=N/OC)[nH]c5=O)C[C@@H]24)[C@@H](O)[C@H]3O)c(=O)[nH]1
III = O=c1[nH]/c(=N\OCc2ccccc2)ccn1[C@@H]1O[C@H](COP(=O)(O)CP(=O)(O)O)[C@@H](O)[C@H]1O
Task field, ranking: reported pEC50, descending order. Labels, requested order.
I, III, II
(I: 6.31, III: 5.63, II: 5.26)

---

# Target: P2Y purinoceptor 6 (Homo sapiens, UniProt Q15077)
# Method description: Agonist activity at human P2Y6 receptor expressed in human 1321N1 cells assessed as induction of calcium mobilization by FLIPR method
pEC50: −log10 of the molar value.
Readout label: pEC50

O=c1ccn([C@]23C[C@H]2[C@H](COP(=O)(O)OP(=O)(O)O)[C@@H](O)[C@H]3O)c(=O)[nH]1 6.36
O=c1[nH]c(=O)n([C@]23C[C@H]2[C@H](COP(=O)(O)OP(=O)(O)O)[C@@H](O)[C@H]3O)cc1I 6.36
CO/N=c1/ccn([C@@H]2O[C@H](COP(=O)(O)CP(=O)(O)O)[C@@H](O)[C@H]2O)c(=O)[nH]1 6.38
